- target: T1, mRBM20(513-621) H523A (Mus musculus, UniProt Q3UQS8 513-621, H523A)
- T1 sequence: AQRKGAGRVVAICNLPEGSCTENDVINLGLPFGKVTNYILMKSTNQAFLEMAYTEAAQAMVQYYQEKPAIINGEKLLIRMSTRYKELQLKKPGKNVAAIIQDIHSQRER
- procedure_summary: ITC
readout_label: pKd
One number for each entry, as −log10 of the molar value.

Query string: Give its pKd value. Item: AUCUUA (ssRNA)
Result string: 4.17
